Recorded solubility thermodynamic for the following compounds
Assay: physchem
Details: PBS, pH 7.4
Description: Thermodynamic aqueous solubility in PBS of pH 7.4 after overnight incubation by chemiluminescent nitrogen detection
Give your result in µM as a bare value.

Field: example entries. Status: answers known.
Nc1nc2oc3ccc(C4CCCCC4)cc3c(=O)c2cc1C(=O)O 94.4
CC(C)Cc1ccc2oc3nc(N)c(C(=O)O)cc3c(=O)c2c1 179
CC(=O)N1CCC(c2ccc3oc4nc(N)c(C(=O)O)cc4c(=O)c3c2)CC1 121
CC(C)c1cc2c(=O)c3cc(C(=O)O)c(N)nc3oc2cn1 77.9
Nc1nc2oc3ccc(C4CCSCC4)cc3c(=O)c2cc1C(=O)O 61.3

### Prompt If you can, please state the reported solubility thermodynamic value of "CN(C)c1ccc2oc3nc(N)c(C(=O)O)cc3c(=O)c2c1" .
### Response 76.8

### Prompt Try this compound too: "CC(C)CCc1ccc2oc3nc(N)c(C(=O)O)cc3c(=O)c2c1"
### Response 119

### Prompt Can you handle "CC(C)c1cc2c(=O)c3cc(C(=O)O)c(N)nc3oc2cc1F" next?
### Response 13.7

### Prompt Query "CC(C)c1ccc2c(=O)c3cc(C(=O)O)c(N)nc3oc2c1" next
### Response 19.1

### Prompt Note, next up: "CC(C)c1cccc2oc3nc(N)c(C(=O)O)cc3c(=O)c12"
### Response 229
